The origin of these recorded values is patent US7060678B2.

Recorded Percent Cytotoxicity for the following compounds
Tested on: HeP-2 (larynx)
Assay: MTT cytotoxicity assay, HeP-2 cells
Format: cell-based, human
Conditions: human, 48 hours, 100 nM

Req: # return recorded Percent Cytotoxicity for entry CSCC[C@H](N)C(=O)NC[C@H]1CC[C@@H](C(=O)N[C@@H](Cc2ccc(O)cc2)C(=O)N[C@@H](CC(C)C)C(=O)O)O1 [SEQ ID NO: 17, Met-Saa4-Tyr-Leu]
Resp: 29.0 ± 0.4%

* * *

System: ECV-304 (endothelial)
Conditions: ECV-304 cells; peptide 1 μM; 48 hours; NA = Not Active
Starred links: 1 amine or outer side, 2 acyl side, 3 side chain; linkers in the order of their positions; H or OH if unused. Non-standard residues stand in square brackets, D forms with d. Residues, ends and D or L forms follow the SMILES beside them. X2 = O=C([C@@H]1CC[C@H](CN[*:1])O1)[*:2]; X1 = O=C(C1CCC(CN[*:1])O1)[*:2]
Recorded Percent Cytotoxicity for the following molecules
Write the answer as a number in %, unit excluded.

Please review the following examples before continuing.
# molecule, value.unit, Percent Cytotoxicity
data = [
    ("CSCC[C@H](NC(=O)[C@@H](N)CC(C)C)C(=O)NC[C@H]1CC[C@@H](C(=O)N[C@H](C(=O)N[C@@H](Cc2ccc(O)cc2)C(=O)N[C@@H](CC(C)C)C(=O)N[C@@H](CCCCN)C(=O)O)[C@@H](C)O)O1 [SEQ ID NO: 9, Leu-Met-Saa4-Thr-Tyr-Leu-Lys] (H-LM[X2]TYLK-OH)", "%", 7.9),
    ("CSCC[C@H](NC(=O)[C@@H](N)CC(C)C)C(=O)N[C@@H](Cc1ccc(O)cc1)C(=O)NCC1CCC(C(=O)N[C@@H](Cc2ccc(O)cc2)C(=O)N[C@@H](CC(C)C)C(=O)N[C@@H](CCCCN)C(=O)O)O1 (stereo partly drawn) [SEQ ID NO: 12, Leu-Met-Tyr-Saa3-Tyr-Leu-Lys] (H-LMY[X1]YLK-OH)", "%", 22.2),
    ("CSCC[C@H](NC(=O)[C@@H](N)CC(C)C)C(=O)N[C@@H](Cc1ccc(O)cc1)C(=O)NC[C@H]1CC[C@@H](C(=O)N[C@@H](Cc2ccc(O)cc2)C(=O)N[C@@H](CC(C)C)C(=O)N[C@@H](CCCCN)C(=O)O)O1 [SEQ ID NO: 13, Leu-Met-Tyr-Saa4-Tyr-Leu-Lys] (H-LMY[X2]YLK-OH)", "%", 12.1),
]

Req: Identify measured Percent Cytotoxicity obtained with ECV-304 (endothelial) for CSCC[C@H](NC(=O)[C@@H](N)CC(C)C)C(=O)NCC1CCC(C(=O)N[C@H](C(=O)N[C@@H](Cc2ccc(O)cc2)C(=O)N[C@@H](CC(C)C)C(=O)N[C@@H](CCCCN)C(=O)O)[C@@H](C)O)O1 (stereo partly drawn) [SEQ ID NO: 8, Leu-Met-Saa3-Thr-Tyr-Leu-Lys] (H-LM[X1]TYLK-OH) .
Resp: 7.9

* * *

System: PTC (colon)
Experiment: MTT cytotoxicity assay, PTC cells
Type: cell-based, human
Settings: human, 48 hours, 10 nM
Starred links: 1 amine or outer side, 2 acyl side, 3 side chain; linkers in the order of their positions; H or OH if unused. Non-standard residues stand in square brackets, D forms with d. Residues, ends and D or L forms follow the SMILES beside them. 2Furoyl(5-aminomethyl) = O=C(c1ccc(CN[*:1])o1)[*:2]; X2 = O=C([C@@H]1CC[C@H](CN[*:1])O1)[*:2]; X1 = O=C(C1CCC(CN[*:1])O1)[*:2]
value.kind: Percent Cytotoxicity (%)
Write the answer as a number in %, unit excluded.

# compound, Percent Cytotoxicity [%]
data = [
    ("CSCC[C@H](N)C(=O)NC[C@H]1CC[C@@H](C(=O)N[C@@H](Cc2ccc(O)cc2)C(=O)N[C@@H](CC(C)C)C(=O)O)O1 [SEQ ID NO: 17, Met-Saa4-Tyr-Leu]", 11.9),
]

Req: # return recorded Percent Cytotoxicity for entry CSCC[C@H](NC(=O)[C@@H](N)CC(C)C)C(=O)N[C@@H](Cc1ccc(O)cc1)C(=O)NCC1CCC(C(=O)N[C@@H](Cc2ccc(O)cc2)C(=O)N[C@@H](CC(C)C)C(=O)N[C@@H](CCCCN)C(=O)O)O1 (stereo partly drawn) [SEQ ID NO: 12, Leu-Met-Tyr-Saa3-Tyr-Leu-Lys] (H-LMY[X1]YLK-OH)
Resp: 14.8

Req: # return recorded Percent Cytotoxicity for entry CSCC[C@H](N)C(=O)NCc1ccc(C(=O)N[C@@H](Cc2ccc(O)cc2)C(=O)N[C@@H](CC(C)C)C(=O)O)o1 [SEQ ID NO: 14, Met-Saa1-Tyr-Leu]
Resp: 26.9

Req: # return recorded Percent Cytotoxicity for entry CSCC[C@H](NC(=O)[C@@H](N)CC(C)C)C(=O)NCc1ccc(C(=O)N[C@@H](Cc2ccc(O)cc2)C(=O)N[C@@H](CC(C)C)C(=O)N[C@@H](CCCCN)C(=O)O)o1 [SEQ ID NO: 18, Leu-Met-Saa1-Tyr-Leu-Lys] (H-LM[2Furoyl(5-aminomethyl)]YLK-OH)
Resp: 28.4

Req: # return recorded Percent Cytotoxicity for entry CSCC[C@H](NC(=O)[C@@H](N)CC(C)C)C(=O)N[C@@H](Cc1ccc(O)cc1)C(=O)NC[C@H]1CC[C@@H](C(=O)N[C@@H](Cc2ccc(O)cc2)C(=O)N[C@@H](CC(C)C)C(=O)N[C@@H](CCCCN)C(=O)O)O1 [SEQ ID NO: 13, Leu-Met-Tyr-Saa4-Tyr-Leu-Lys] (H-LMY[X2]YLK-OH)
Resp: 26.0

Req: # return recorded Percent Cytotoxicity for entry CSCC[C@H](NC(=O)[C@@H](N)CC(C)C)C(=O)N[C@@H](Cc1ccc(O)cc1)C(=O)NCc1ccc(C(=O)N[C@@H](Cc2ccc(O)cc2)C(=O)N[C@@H](CC(C)C)C(=O)N[C@@H](CCCCN)C(=O)O)o1 [SEQ ID NO: 10, Leu-Met-Tyr-Saa1-Tyr-Leu-Lys] (H-LMY[2Furoyl(5-aminomethyl)]YLK-OH)
Resp: 28.0

* * *

Recorded Percent Cytotoxicity for the following compounds
System: PA1 (human ovary)
Assay: MTT cytotoxicity assay, PA1 cells
Format: cell-based
Conditions: human, 48 hours, 10 nM
Starred links: 1 amine or outer side, 2 acyl side, 3 side chain; linkers in the order of their positions; H or OH if unused. Non-standard residues stand in square brackets, D forms with d. Residues, ends and D or L forms follow the SMILES beside them. 2Furoyl(5-aminomethyl) = O=C(c1ccc(CN[*:1])o1)[*:2]
Write the answer as a number in %, unit excluded.

# compound, Percent Cytotoxicity / %
rows = [
    ("CSCC[C@H](N)C(=O)NCC1CCC(C(=O)N[C@@H](Cc2ccc(O)cc2)C(=O)N[C@@H](CC(C)C)C(=O)O)O1 (some centres unmarked)", 22.9),
]

Query compound follows.
Req: # return recorded Percent Cytotoxicity for entry CSCC[C@H](NC(=O)[C@@H](N)CC(C)C)C(=O)N[C@@H](Cc1ccc(O)cc1)C(=O)NCc1ccc(C(=O)N[C@@H](Cc2ccc(O)cc2)C(=O)N[C@@H](CC(C)C)C(=O)N[C@@H](CCCCN)C(=O)O)o1 [SEQ ID NO: 10, Leu-Met-Tyr-Saa1-Tyr-Leu-Lys] (H-LMY[2Furoyl(5-aminomethyl)]YLK-OH)
Resp: 32.0

* * *

Test system: ECV-304 (endothelial)
Settings: ECV-304 cells; peptide 1 nM; 48 hours; NA = Not Active
Starred links: 1 amine or outer side, 2 acyl side, 3 side chain; linkers in the order of their positions; H or OH if unused. Non-standard residues stand in square brackets, D forms with d. Residues, ends and D or L forms follow the SMILES beside them. X2 = O=C([C@@H]1CC[C@H](CN[*:1])O1)[*:2]; X1 = O=C(C1CCC(CN[*:1])O1)[*:2]
Recorded Percent Cytotoxicity for the following compounds
Write the answer as a number in %, unit excluded.

# compound, value.unit, Percent Cytotoxicity
measured = [
    ("CSCC[C@H](NC(=O)[C@@H](N)CC(C)C)C(=O)NCC1CCC(C(=O)N[C@H](C(=O)N[C@@H](Cc2ccc(O)cc2)C(=O)N[C@@H](CC(C)C)C(=O)N[C@@H](CCCCN)C(=O)O)[C@@H](C)O)O1 (stereo partly drawn) [SEQ ID NO: 8, Leu-Met-Saa3-Thr-Tyr-Leu-Lys] (H-LM[X1]TYLK-OH)", "%", 15.3),
]

Req: # return recorded Percent Cytotoxicity for entry CSCC[C@H](N)C(=O)NCC1CCC(C(=O)N[C@@H](Cc2ccc(O)cc2)C(=O)N[C@@H](CC(C)C)C(=O)O)O1 (stereo partly shown)
Resp: 9.3

Req: # return recorded Percent Cytotoxicity for entry CSCC[C@H](NC(=O)[C@@H](N)CC(C)C)C(=O)NC[C@H]1CC[C@@H](C(=O)N[C@H](C(=O)N[C@@H](Cc2ccc(O)cc2)C(=O)N[C@@H](CC(C)C)C(=O)N[C@@H](CCCCN)C(=O)O)[C@@H](C)O)O1 [SEQ ID NO: 9, Leu-Met-Saa4-Thr-Tyr-Leu-Lys] (H-LM[X2]TYLK-OH)
Resp: 12.8

Req: # return recorded Percent Cytotoxicity for entry CSCC[C@H](NC(=O)[C@@H](N)CC(C)C)C(=O)N[C@@H](Cc1ccc(O)cc1)C(=O)NCC1CCC(C(=O)N[C@@H](Cc2ccc(O)cc2)C(=O)N[C@@H](CC(C)C)C(=O)N[C@@H](CCCCN)C(=O)O)O1 (stereo partly drawn) [SEQ ID NO: 12, Leu-Met-Tyr-Saa3-Tyr-Leu-Lys] (H-LMY[X1]YLK-OH)
Resp: 32.0
